# TEST SUMMARY: Single-dose plasma pharmacokinetics of MK-8507 (suspension, study 1; tablet, study 2)
# Assay type: in vivo
# DETAILS: human, po, 100 mg, single oral dose 100 mg, suspension, fasted, n=6, read-out: C168hr (geometric mean [95% CI])
PROPERTY LABEL: concentration at 168 h (nM)
Provide the reading as a plain figure in nM.

According to the records, this molecule N#Cc1cc(Cl)cc(Oc2c(C(F)(F)F)ncn(Cc3cc(C(F)(F)F)c(=O)[nH]n3)c2=O)c1 displays concentration at 168 h of 300

* * *

# TEST SUMMARY: Single-dose plasma pharmacokinetics of MK-8507 (suspension, study 1; tablet, study 2)
# Assay type: in vivo
# DETAILS: human, po, 10 mg, single oral dose 10 mg, suspension, fasted, n=6, read-out: AUC0–168 (geometric mean [95% CI])
PROPERTY LABEL: AUC(0-t) (µM·h)
Reply numerically in µM·h, unit not repeated.

AUC(0-t) in this record for N#Cc1cc(Cl)cc(Oc2c(C(F)(F)F)ncn(Cc3cc(C(F)(F)F)c(=O)[nH]n3)c2=O)c1 : 11.9
